# assayedTarget: Prostaglandin D2 receptor (Homo sapiens) (UniProt Q13258)
# Sequence (Q13258 whole entry): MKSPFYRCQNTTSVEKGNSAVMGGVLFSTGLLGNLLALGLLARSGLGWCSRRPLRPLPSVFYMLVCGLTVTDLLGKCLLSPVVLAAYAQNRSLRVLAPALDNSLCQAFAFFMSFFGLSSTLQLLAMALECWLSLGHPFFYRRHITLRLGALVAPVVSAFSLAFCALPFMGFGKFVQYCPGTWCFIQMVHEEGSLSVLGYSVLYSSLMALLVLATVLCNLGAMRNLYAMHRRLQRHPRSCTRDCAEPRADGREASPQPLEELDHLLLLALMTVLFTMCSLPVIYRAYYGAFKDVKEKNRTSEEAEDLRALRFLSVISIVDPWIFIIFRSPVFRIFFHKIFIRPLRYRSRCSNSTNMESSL
# assayInfo: Antagonist activity at DP1 receptor (unknown origin) expressed in rat C6 cells by TR-FRET assay
# Assay type: cell-based
reportedEndpoint: log10 Kb (log10 of the value in µM)
Form field - Quantity: Kb; Unit: µM; Scale: log10

Give the reported log10 Kb for `Cc1cc2ccccc2n1CCNC(=O)c1ccc(N2CCCCCC2)cc1` (system: Prostaglandin D2 receptor (Homo sapiens) (UniProt Q13258)). 0.89

// query: `Cc1cc2ccccc2n1CCNC(=O)c1ccc(N(C)C)cc1` 0.81

Lookup `Cc1cc2ccccc2n1CCNC(=O)c1ccc(N2CCCCC2)cc1` 0.41

Let us now turn to `Cc1cc2ccccc2n1CCNC(=O)c1ccc2c(c1)n(C)c(=O)n2C` 0.80

Then what about the compound `CCCN(CCC)c1ccc(C(=O)NCCn2c(C)cc3ccccc32)cc1` ? 0.55

Would you kindly repeat that for `Cc1cc2ccccc2n1CCNC(=O)c1ccc(-c2nnn[nH]2)cc1` ? -0.18

* * *

# assayInfo: Cmax in C57Bl/6 mouse at 10 mg/kg, po
# Format: ADME, organism-based
# Design: dose 10 mg/kg, route oral
# testParameters: in vivo
reportedEndpoint: Cmax (nM)
Numeric answer only, unit nM assumed.

What value of Cmax has been reported for the following compound? `Cc1cc2ccccc2n1CCNC(=O)c1ccc(-c2nnn[nH]2)cc1` 134

* * *

Would you kindly list Kb for each of these compounds?
# assayedTarget: Prostaglandin E2 receptor EP2 subtype (Homo sapiens)
# assayInfo: Antagonist activity at EP2 receptor (unknown origin) expressed in rat C6 cells assessed as inhibition of PGE2-induced response
# Format: cell-based
Give just the numeric value; nM need not be written.

Reported Kb for Cc1cc2ccccc2n1CCNC(=O)C1CCC(c2ncccn2)CC1 (stereo unspecified) : what is it? 380

Now the compound CCNc1ncc(C(=O)NCCC2C(C)=Nc3ccccc32)cn1 (stereo unspecified) 155

Again, but for `Cc1cc2ccccc2n1CCNC(=O)c1ccc(N)cc1` 210

Also check `Cc1cc2ccccc2n1CCNC(=O)c1ccc(C(=O)OC(C)(C)C)cc1` 100

Can you handle Cc1cc2ccccc2n1CCNC(=O)c1ccc(C2CCCN(C(=O)OC(C)(C)C)C2)cc1 (stereo unspecified) next? 95

Please give the result for `Cc1[nH]c2ccccc2c1CCNC(=O)c1ccc(N2CCCCC2)cc1` too. 19.8

* * *

# assayedTarget: Prostaglandin E2 receptor EP2 subtype (Homo sapiens) (UniProt P43116)
# Sequence (P43116 whole entry): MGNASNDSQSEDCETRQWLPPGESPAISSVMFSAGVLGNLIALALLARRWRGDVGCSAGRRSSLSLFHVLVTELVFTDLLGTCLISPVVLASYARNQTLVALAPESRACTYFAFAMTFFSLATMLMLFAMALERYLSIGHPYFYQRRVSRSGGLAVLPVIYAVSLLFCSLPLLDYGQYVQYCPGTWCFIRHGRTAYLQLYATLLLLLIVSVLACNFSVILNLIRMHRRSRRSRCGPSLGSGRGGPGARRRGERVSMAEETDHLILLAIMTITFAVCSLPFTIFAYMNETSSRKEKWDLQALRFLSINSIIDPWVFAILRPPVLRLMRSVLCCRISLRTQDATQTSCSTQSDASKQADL
# assayInfo: Antagonist activity at EP2 receptor (unknown origin) expressed in rat C6 cells assessed as inhibition of PGE2-induced response
# Type: cell-based
The label is Met for Kb below 30 nM and Not met for Kb equal to or exceeding 30 nM.

Strictly below 30 nM: is that where Kb of `Cc1cc2ccccc2n1CCNC(=O)c1ccc2c(c1)n(C)c(=O)n2C` sits? Met

What do we get for `CCNc1ccc(C(=O)NCCn2c(C)cc3ccccc32)cc1` ? Met

Next: `Cc1cc2ccccc2n1CCNC(=O)c1ccc(N2CCOCC2)c(F)c1` Met

Now consider `Cc1cc2ccccc2n1CCNC(=O)c1cccc(N2CCN(C)CC2)c1` and answer again. Not met

Next up: `Cc1cc2ccccc2n1CCNC(=O)c1ccc(S(N)(=O)=O)cc1` Not met

Thanks! And `Cc1cc2ccccc2n1CCNC(=O)c1ccc(C2CCCCC2)cc1` ? Not met

Request: Cc1cc2ccccc2n1C1CCCN(C(=O)c2ccc(N3CCOCC3)cc2)C1 (stereo unspecified) Not met

Same read-out for `CCN(CC)c1ccc(C(=O)NCCCn2c(C)cc3ccccc32)cc1` ? Not met

// repeat for `Cc1cc2ccccc2n1CCNC(=O)c1ccc(CCN)cc1` and report Not met

Try the molecule O=C(NC1CCc2[nH]c3ccccc3c2C1)c1ccc(N2CCOCC2)cc1 (stereo unspecified) Not met

Note, next up: `CCN(CC)c1ccc(C(=O)NCCn2c(C(F)(F)F)cc3ccccc32)cc1` Not met

meta.source: ChEMBL document CHEMBL3286257
